# System: HEPG2
# Assay method text: Euclidean distance of Cell Painting phenotypic profile (signed KS, 77 features) to DMSO centroid (dimensionless distance); 5 or 10 uM (library dependent); higher = stronger phenotypic change vs DMSO (phenoactivity)
# Measurement conditions: 48 h
Counter-ions that a name gives are not always drawn.
For each record, write down the corresponding Euclidean distance.
Give bare numbers.

COc1cccc2c1C(=O)c1c(O)c3c(c(O)c1C2=O)C[C@@](O)(C(=O)CO)C[C@@H]3O[C@H]1C[C@H](N)[C@H](O)[C@H](C)O1 [Doxorubicin (Adriamycin)]
4.55
CCOc1ccc2c(c1)C(C)=CC(C)(C)N2 [Ethoxyquin]
0.54

Hey, quick one: what's Euclidean distance for each of these?
1. CN(C)CCN(Cc1ccccc1)c1ccccn1 [Tripelennamine HCl]
2. CC(C)(C)NCC(O)c1ccc(O)c(CO)c1 (centres undefined) [Salbutamol]

Response:
1: 0.581; 2: 0.894
